Ref: patent US8501242B2

Here, each record is paired with measured log10 Ki data.
biological target: human thymidylate synthase (Homo sapiens, UniProt P04818); assay: spectrophotometric assay of human thymidylate synthase activity; conditions: Table 2, kinetic parameters of TS in presence of selected compounds
Sequence (P04818 whole entry): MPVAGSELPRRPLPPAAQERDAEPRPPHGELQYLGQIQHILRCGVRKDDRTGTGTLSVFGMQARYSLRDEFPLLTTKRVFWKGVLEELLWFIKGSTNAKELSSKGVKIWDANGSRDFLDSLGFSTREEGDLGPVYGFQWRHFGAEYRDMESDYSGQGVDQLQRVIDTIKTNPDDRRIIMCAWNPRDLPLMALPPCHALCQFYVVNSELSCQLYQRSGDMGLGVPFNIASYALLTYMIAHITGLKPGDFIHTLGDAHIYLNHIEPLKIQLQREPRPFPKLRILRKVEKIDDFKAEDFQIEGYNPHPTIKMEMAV
REPORTED ENDPOINT: log10 Ki (log10 of the value in µM)

[
  {
    "COMPOUND": "CCN(CC)S(=O)(=O)c1ccc(C(=O)O)cc1",
    "log10 Ki": 2.25
  },
  {
    "COMPOUND": "CC(=O)NC(CS)C(=O)O (centres unmarked)",
    "log10 Ki": 2.78
  },
  {
    "COMPOUND": "O=P(O)(O)OCC(O)CO (centres unmarked) [NSC9231, 2,3-Dihydroxypropyl dihydrogen phosphate]",
    "log10 Ki": 0.33
  },
  {
    "COMPOUND": "CC(=O)Nc1c(I)cc(I)c(C(=O)O)c1I",
    "log10 Ki": 0.73
  },
  {
    "COMPOUND": "O=C(O)Cn1cc(I)c(=O)c(I)c1",
    "log10 Ki": 1.47
  },
  {
    "COMPOUND": "CCn1nc(C(=O)O)c(=O)c2cc3c(cc21)OCO3",
    "log10 Ki": -0.49
  },
  {
    "COMPOUND": "O=c1[nH]cc(F)c(=O)[nH]1 [5-FU, 5-fluorouracil, reference compound]",
    "log10 Ki": 1.75
  },
  {
    "COMPOUND": "O=C(O)C(S)C(S)C(=O)O (centres unmarked)",
    "log10 Ki": 1.66
  }
]
